- Measurement notes: Concentration of levormeloxifene fumarate in saturated donor solutions (HPLC)
- Type: physicochemical
- Test conditions: b4 + 30% ethanol, organic solvent or mixture, vehicle B4 + 30% ethanol; stirred 24 hours, room temperature; read-out: Conc. unmarked (donor phase saturated)
Counter-ions that a name gives are not always drawn.
Metric: solubility thermodynamic at 24 h (µg/mL)
Kindly provide the numeric value in µg/mL only, without the unit symbol.

Given the entry COc1ccc2c(c1)OC(C)(C)[C@@H](c1ccccc1)[C@@H]2c1ccc(OCCN2CCCC2)cc1 [levormeloxifene fumarate] , report its measured solubility thermodynamic at 24 h.
3100

* * *

- Measurement notes: Concentration of levormeloxifene fumarate in saturated donor solutions (HPLC)
- Type: physicochemical
- Test conditions: b4 + 2% 2-pyrrolidon, vehicle B4 + 2% 2-pyrrolidon; stirred 24 hours, room temperature; read-out: Conc. unmarked (donor phase saturated)
Counter-ions that a name gives are not always drawn.
Metric: solubility thermodynamic at 24 h (µg/mL)
# output: bare number, implied unit µg/mL

So what does the record say about solubility thermodynamic at 24 h for COc1ccc2c(c1)OC(C)(C)[C@@H](c1ccccc1)[C@@H]2c1ccc(OCCN2CCCC2)cc1 [levormeloxifene fumarate] ?
420

* * *

- Measurement notes: Concentration of levormeloxifene fumarate in saturated donor solutions (HPLC)
- Format: physicochemical
- Test conditions: pg + 10% oleic acid, organic solvent or mixture, vehicle PG + 10% oleic acid; stirred 24 hours, room temperature; read-out: Conc. unmarked (donor phase saturated)
Where a name gives a salt, the structure may show the parent alone.
Metric: solubility thermodynamic at 24 h

# solubility thermodynamic at 24 h lookup, item COc1ccc2c(c1)OC(C)(C)[C@@H](c1ccccc1)[C@@H]2c1ccc(OCCN2CCCC2)cc1 [levormeloxifene fumarate]
116 mg/mL

* * *

- Measurement notes: Concentration of levormeloxifene fumarate in saturated donor solutions (HPLC)
- Type: physicochemical
- Test conditions: acetic acid 0.05m (b4), pH 4, vehicle B4 (acetic acid 0.05M, pH 4); stirred 24 hours, room temperature; read-out: Conc. unmarked (donor phase saturated)
Where a name gives a salt, the structure may show the parent alone.
Metric: solubility thermodynamic at 24 h (µg/mL)
Entry rule: numbers only, all in µg/mL.

For the compound shown here, COc1ccc2c(c1)OC(C)(C)[C@@H](c1ccccc1)[C@@H]2c1ccc(OCCN2CCCC2)cc1 [levormeloxifene fumarate] , give the reported solubility thermodynamic at 24 h.
325

Where these numbers come from: patent US5935987A
